- Test system: NCI-H522 lung
- test.protocol: NCI tumour cell line growth inhibition, 48 h
result.type: TGI

Some compounds with known TGI results, for comparison:
compound	TGI
O=c1oc2ccc([N+](=O)[O-])cc2c(Nc2ccc3c(c2)S(=O)(=O)c2ccccc2O3)c1[N+](=O)[O-]	> 100 µM
CCCNc1nc2ccccc2c2c1S(=O)(=O)c1ccc(Cl)cc1C2=O	> 50 µM
CC(C)(C)S(=O)OC12CC3CC(CC(C3)C1)C2 (stereo unspecified)	> 100 µM

Provide only the value of recorded TGI for COc1ccc2c(c1OC)C(=O)c1cnccc1C2=O
> 100 µM

Give TGI for the following compound: CC(C)(C)OC(=O)N(CCCCNCc1ccc2ccccc2c1)CCCNCc1ccc2ccccc2c1
3.07 µM

Input Cc1cccc2c(=O)c3cccc([C@@H](C)C(=O)O)c3oc12 , output reported TGI.
> 100 µM

Input COc1cc(C(=O)Oc2c(C#N)sc3c2c(=O)n(-c2ccccc2)c(=S)n3-c2ccccc2)cc(OC)c1OC , output reported TGI.
2.11 µM

Determine from records and report TGI for COc1ccc(OC)c(Nc2nc(-c3c(C)nc4sccn34)cs2)c1
> 100 µM

For the compound CN(C)CCN(C(=Nc1ccccc1)N1CCCC1)c1ccccc1 , report TGI.
> 100 µM

Input COc1cc2oc(=O)ccc2cc1CC=C(C)C , output reported TGI.
> 100 µM
